# Test target: Pdr3 (UniProt P33200)
# Sequence: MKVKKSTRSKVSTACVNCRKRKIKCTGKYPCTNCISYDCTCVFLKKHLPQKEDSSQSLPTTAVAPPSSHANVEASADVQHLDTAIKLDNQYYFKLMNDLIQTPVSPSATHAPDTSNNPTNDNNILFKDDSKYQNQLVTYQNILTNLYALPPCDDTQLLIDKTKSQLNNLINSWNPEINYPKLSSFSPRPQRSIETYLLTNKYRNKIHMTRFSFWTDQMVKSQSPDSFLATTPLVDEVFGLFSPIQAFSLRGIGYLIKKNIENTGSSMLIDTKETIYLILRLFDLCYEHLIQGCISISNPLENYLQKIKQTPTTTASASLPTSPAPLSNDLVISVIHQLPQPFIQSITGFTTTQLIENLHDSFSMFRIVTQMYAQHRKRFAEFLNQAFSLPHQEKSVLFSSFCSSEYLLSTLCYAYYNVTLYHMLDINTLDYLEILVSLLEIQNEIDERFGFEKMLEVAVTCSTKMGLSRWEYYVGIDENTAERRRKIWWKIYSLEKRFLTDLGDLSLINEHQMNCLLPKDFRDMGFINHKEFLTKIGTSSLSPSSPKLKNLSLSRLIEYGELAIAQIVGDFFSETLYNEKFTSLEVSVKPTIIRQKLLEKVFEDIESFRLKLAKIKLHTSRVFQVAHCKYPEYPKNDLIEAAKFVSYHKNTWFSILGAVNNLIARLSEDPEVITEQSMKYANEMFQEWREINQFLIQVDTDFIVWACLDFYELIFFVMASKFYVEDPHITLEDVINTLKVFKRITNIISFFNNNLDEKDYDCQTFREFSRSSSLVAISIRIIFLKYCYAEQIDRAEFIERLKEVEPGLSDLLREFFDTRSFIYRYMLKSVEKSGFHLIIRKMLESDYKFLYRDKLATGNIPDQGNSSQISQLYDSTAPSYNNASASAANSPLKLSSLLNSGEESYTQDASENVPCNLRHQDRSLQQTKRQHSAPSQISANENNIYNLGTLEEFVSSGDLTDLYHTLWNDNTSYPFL
# Method: PBM E-score (8-mer binding enrichment) (E-score (-0.5 to 0.5)); higher = stronger / more preferred TF binding
# Condition parameters: protein concentration: 200 nM; construct: GST-full length
Over roughly 33,000 sequences, “E-score (-0.5 to 0.5)” has its median near -0.035; the highest 2% begin near 0.35. Only a selection was taken, and the highest values are over-represented in it overall.
Quick rule: PBM E-score of at least 0.3 means true, below that means false.

[
  {
    "Macromolecule sequence": "AATGAAAC",
    "Test target": "Pdr3 (UniProt P33200)",
    "Cat": "false"
  },
  {
    "Macromolecule sequence": "AGCGAGCA",
    "Test target": "Pdr3 (UniProt P33200)",
    "Cat": "false"
  },
  {
    "Macromolecule sequence": "CCCGGCCG",
    "Test target": "Pdr3 (UniProt P33200)",
    "Cat": "true"
  },
  {
    "Macromolecule sequence": "CGGGGACG",
    "Test target": "Pdr3 (UniProt P33200)",
    "Cat": "false"
  },
  {
    "Macromolecule sequence": "CGGAAAAC",
    "Test target": "Pdr3 (UniProt P33200)",
    "Cat": "true"
  },
  {
    "Macromolecule sequence": "AATTTAAT",
    "Test target": "Pdr3 (UniProt P33200)",
    "Cat": "false"
  },
  {
    "Macromolecule sequence": "CCGGGGGC",
    "Test target": "Pdr3 (UniProt P33200)",
    "Cat": "false"
  },
  {
    "Macromolecule sequence": "CATTTCCG",
    "Test target": "Pdr3 (UniProt P33200)",
    "Cat": "true"
  },
  {
    "Macromolecule sequence": "CGGAAAAA",
    "Test target": "Pdr3 (UniProt P33200)",
    "Cat": "true"
  },
  {
    "Macromolecule sequence": "ATTTCCCA",
    "Test target": "Pdr3 (UniProt P33200)",
    "Cat": "false"
  },
  {
    "Macromolecule sequence": "AAGCATCT",
    "Test target": "Pdr3 (UniProt P33200)",
    "Cat": "false"
  },
  {
    "Macromolecule sequence": "AAACATGT",
    "Test target": "Pdr3 (UniProt P33200)",
    "Cat": "false"
  },
  {
    "Macromolecule sequence": "AATTTGCT",
    "Test target": "Pdr3 (UniProt P33200)",
    "Cat": "false"
  },
  {
    "Macromolecule sequence": "GGGAAAAC",
    "Test target": "Pdr3 (UniProt P33200)",
    "Cat": "false"
  },
  {
    "Macromolecule sequence": "AAACCAGG",
    "Test target": "Pdr3 (UniProt P33200)",
    "Cat": "false"
  },
  {
    "Macromolecule sequence": "ACGAGGCC",
    "Test target": "Pdr3 (UniProt P33200)",
    "Cat": "false"
  },
  {
    "Macromolecule sequence": "CCCGGCGG",
    "Test target": "Pdr3 (UniProt P33200)",
    "Cat": "true"
  },
  {
    "Macromolecule sequence": "TCGGGACA",
    "Test target": "Pdr3 (UniProt P33200)",
    "Cat": "false"
  },
  {
    "Macromolecule sequence": "AGTTTCCA",
    "Test target": "Pdr3 (UniProt P33200)",
    "Cat": "false"
  },
  {
    "Macromolecule sequence": "CCGCCCGG",
    "Test target": "Pdr3 (UniProt P33200)",
    "Cat": "true"
  },
  {
    "Macromolecule sequence": "ATTTCCCC",
    "Test target": "Pdr3 (UniProt P33200)",
    "Cat": "false"
  },
  {
    "Macromolecule sequence": "AATCCCGT",
    "Test target": "Pdr3 (UniProt P33200)",
    "Cat": "true"
  },
  {
    "Macromolecule sequence": "CGGGGGCC",
    "Test target": "Pdr3 (UniProt P33200)",
    "Cat": "false"
  },
  {
    "Macromolecule sequence": "CACCCGGA",
    "Test target": "Pdr3 (UniProt P33200)",
    "Cat": "true"
  },
  {
    "Macromolecule sequence": "GGACGGAA",
    "Test target": "Pdr3 (UniProt P33200)",
    "Cat": "true"
  },
  {
    "Macromolecule sequence": "CCGCCCGC",
    "Test target": "Pdr3 (UniProt P33200)",
    "Cat": "false"
  },
  {
    "Macromolecule sequence": "CATTTCCA",
    "Test target": "Pdr3 (UniProt P33200)",
    "Cat": "false"
  },
  {
    "Macromolecule sequence": "AGTTTCCG",
    "Test target": "Pdr3 (UniProt P33200)",
    "Cat": "true"
  },
  {
    "Macromolecule sequence": "AATCCCGA",
    "Test target": "Pdr3 (UniProt P33200)",
    "Cat": "true"
  },
  {
    "Macromolecule sequence": "AAGCCCGC",
    "Test target": "Pdr3 (UniProt P33200)",
    "Cat": "false"
  },
  {
    "Macromolecule sequence": "CCGGCTTC",
    "Test target": "Pdr3 (UniProt P33200)",
    "Cat": "true"
  },
  {
    "Macromolecule sequence": "CCGGGGCC",
    "Test target": "Pdr3 (UniProt P33200)",
    "Cat": "true"
  },
  {
    "Macromolecule sequence": "AGACGGAA",
    "Test target": "Pdr3 (UniProt P33200)",
    "Cat": "true"
  },
  {
    "Macromolecule sequence": "GGGAACGA",
    "Test target": "Pdr3 (UniProt P33200)",
    "Cat": "false"
  },
  {
    "Macromolecule sequence": "GTTTCTCA",
    "Test target": "Pdr3 (UniProt P33200)",
    "Cat": "false"
  },
  {
    "Macromolecule sequence": "ATTACACA",
    "Test target": "Pdr3 (UniProt P33200)",
    "Cat": "false"
  },
  {
    "Macromolecule sequence": "ACGCCCGG",
    "Test target": "Pdr3 (UniProt P33200)",
    "Cat": "true"
  },
  {
    "Macromolecule sequence": "ATTTTCCA",
    "Test target": "Pdr3 (UniProt P33200)",
    "Cat": "false"
  },
  {
    "Macromolecule sequence": "AAGCGATC",
    "Test target": "Pdr3 (UniProt P33200)",
    "Cat": "false"
  },
  {
    "Macromolecule sequence": "CCGGGACC",
    "Test target": "Pdr3 (UniProt P33200)",
    "Cat": "true"
  },
  {
    "Macromolecule sequence": "AGTCCCGA",
    "Test target": "Pdr3 (UniProt P33200)",
    "Cat": "false"
  },
  {
    "Macromolecule sequence": "AAGCCCGG",
    "Test target": "Pdr3 (UniProt P33200)",
    "Cat": "true"
  },
  {
    "Macromolecule sequence": "TGACGGAA",
    "Test target": "Pdr3 (UniProt P33200)",
    "Cat": "true"
  },
  {
    "Macromolecule sequence": "GAGTGCTA",
    "Test target": "Pdr3 (UniProt P33200)",
    "Cat": "false"
  },
  {
    "Macromolecule sequence": "ACCGGCCG",
    "Test target": "Pdr3 (UniProt P33200)",
    "Cat": "true"
  }
]
